Data credit: ChEMBL document CHEMBL2331336

Assay: Plasma protein binding in human
Format: ADME, cell-free
Conditions: read-out: PPB (converted)
ATTRIBUTE MEASURED: fraction unbound
Numbers only.

Here are 2 compounds together with their reported answers.
[
  {
    "SMILES DATA": "O=C(N[C@@H]1CCC[C@@H](NC(=O)c2cccc(Cl)c2)C1)c1cccc(F)c1",
    "fraction unbound": 0.039
  },
  {
    "SMILES DATA": "N#Cc1cccc(C(=O)N[C@@H]2CCC[C@@H](NC(=O)c3ccccn3)C2)c1",
    "fraction unbound": 0.157
  }
]

Attention now turns to another entry.
Field fraction unbound (entry `O=C(N[C@@H]1CCC[C@@H](NC(=O)c2ccccn2)C1)c1cccc(Cl)c1` ) reads 0.065

----------
Assay: Plasma concentration in CD-1 mouse at 10 mg/kg, po at 1 hr
Format: ADME, organism-based
Set-up: dose 10 mg/kg, route oral
ATTRIBUTE MEASURED: concentration at 1 h (µM)
Numbers only, in µM.

Field concentration at 1 h (entry `Cc1cccc(C(=O)N[C@H]2CCC[C@]3(CN=C(c4cccc(Cl)c4)O3)C2)n1` ) reads 0.017

----------
Test: Fraction unbound in rat brain
Type: ADME, tissue-based
ATTRIBUTE MEASURED: fraction unbound
Give bare numbers.

Field fraction unbound (entry `O=C(N[C@@H]1CCC[C@@H](NC(=O)c2ccccn2)C1)c1cccc(Cl)c1` ) reads 0.13

----------
Test: Tmax in Sprague-Dawley rat at 1 mg/kg, iv or 2 mg/kg, po
Format: ADME, organism-based
Conditions: in vivo
ATTRIBUTE MEASURED: Tmax (h)
One number for each entry, in h.

Field Tmax (entry `O=C(N[C@@H]1CCC[C@@H](NC(=O)c2ccccn2)C1)c1cccc(Cl)c1` ) reads 2

----------
Experiment: Drug uptake in CD-1 mouse brain at 10 mg/kg, po at 1 hr
Type: ADME, organism-based
Parameters: dose 10 mg/kg, route oral
Details: read-out: Drug uptake
ATTRIBUTE MEASURED: concentration at 1 h

Field concentration at 1 h (entry `Cc1cccc(C(=O)N[C@H]2CCC[C@]3(CN=C(c4cccc(Cl)c4)O3)C2)n1` ) reads 9 nM

----------
Task for the reader: assign each of the following compounds its reported Intrinsic clearance.
Test system: Liver
Assay: Intrinsic clearance in mouse liver microsomes
Type: ADME, Microsome
Note: state the figure and append the unit.

Here are 3 compounds together with their reported answers.
[
  {
    "SMILES DATA": "Cc1cccc(C(=O)N[C@H]2CCC[C@]3(CN=C(c4cccc(Cl)c4)O3)C2)n1",
    "SYSTEM TESTED": "Liver",
    "Intrinsic clearance": "12.5 mL/min"
  },
  {
    "SMILES DATA": "O=C(N[C@H]1CCC[C@]2(CN=C(c3cccc(Cl)c3)O2)C1)c1ccccn1",
    "SYSTEM TESTED": "Liver",
    "Intrinsic clearance": "8.8 mL/min"
  },
  {
    "SMILES DATA": "N#Cc1cccc(C(=O)N[C@@H]2CCC[C@@H](NC(=O)c3ccccn3)C2)c1",
    "SYSTEM TESTED": "Liver",
    "Intrinsic clearance": "1.8 mL/min"
  }
]

Attention now turns to another entry.
Intrinsic clearance on Liver for `O=C(N[C@@H]1CCC[C@@H](NC(=O)c2ccccn2)C1)c1cccc(Cl)c1` is 9 mL/min

----------
Test: Partition co-efficient, log D at pH 7.4 of the compound by shake flask method
Format: physicochemical
Conditions: buffer
ATTRIBUTE MEASURED: logD
One number for each entry.

Field logD (entry `O=C(N[C@@H]1CCC[C@@H](NC(=O)c2ccccn2)C1)c1cccc(Cl)c1` ) reads 3.2

----------
Experiment: Half life in Sprague-Dawley rat at 1 mg/kg, iv or 2 mg/kg, po
Format: ADME, organism-based
Conditions: in vivo
ATTRIBUTE MEASURED: half-life (min)
Answers are plain numbers, in min.

Field half-life (entry `O=C(N[C@@H]1CCC[C@@H](NC(=O)c2ccccn2)C1)c1cccc(Cl)c1` ) reads 36

----------
Tested on: Rattus norvegicus
Assay: Bioavailability in Sprague-Dawley rat at 1 mg/kg, iv or 2 mg/kg, po
Type: ADME, organism-based
Conditions: in vivo
ATTRIBUTE MEASURED: bioavailability (%)
One number for each entry, in %.

Field bioavailability (entry `O=C(N[C@@H]1CCC[C@@H](NC(=O)c2ccccn2)C1)c1cccc(Cl)c1` ) reads 80

----------
Target: Metabotropic glutamate receptor 5 (Homo sapiens, UniProt P41594)
Sequence (P41594 whole entry): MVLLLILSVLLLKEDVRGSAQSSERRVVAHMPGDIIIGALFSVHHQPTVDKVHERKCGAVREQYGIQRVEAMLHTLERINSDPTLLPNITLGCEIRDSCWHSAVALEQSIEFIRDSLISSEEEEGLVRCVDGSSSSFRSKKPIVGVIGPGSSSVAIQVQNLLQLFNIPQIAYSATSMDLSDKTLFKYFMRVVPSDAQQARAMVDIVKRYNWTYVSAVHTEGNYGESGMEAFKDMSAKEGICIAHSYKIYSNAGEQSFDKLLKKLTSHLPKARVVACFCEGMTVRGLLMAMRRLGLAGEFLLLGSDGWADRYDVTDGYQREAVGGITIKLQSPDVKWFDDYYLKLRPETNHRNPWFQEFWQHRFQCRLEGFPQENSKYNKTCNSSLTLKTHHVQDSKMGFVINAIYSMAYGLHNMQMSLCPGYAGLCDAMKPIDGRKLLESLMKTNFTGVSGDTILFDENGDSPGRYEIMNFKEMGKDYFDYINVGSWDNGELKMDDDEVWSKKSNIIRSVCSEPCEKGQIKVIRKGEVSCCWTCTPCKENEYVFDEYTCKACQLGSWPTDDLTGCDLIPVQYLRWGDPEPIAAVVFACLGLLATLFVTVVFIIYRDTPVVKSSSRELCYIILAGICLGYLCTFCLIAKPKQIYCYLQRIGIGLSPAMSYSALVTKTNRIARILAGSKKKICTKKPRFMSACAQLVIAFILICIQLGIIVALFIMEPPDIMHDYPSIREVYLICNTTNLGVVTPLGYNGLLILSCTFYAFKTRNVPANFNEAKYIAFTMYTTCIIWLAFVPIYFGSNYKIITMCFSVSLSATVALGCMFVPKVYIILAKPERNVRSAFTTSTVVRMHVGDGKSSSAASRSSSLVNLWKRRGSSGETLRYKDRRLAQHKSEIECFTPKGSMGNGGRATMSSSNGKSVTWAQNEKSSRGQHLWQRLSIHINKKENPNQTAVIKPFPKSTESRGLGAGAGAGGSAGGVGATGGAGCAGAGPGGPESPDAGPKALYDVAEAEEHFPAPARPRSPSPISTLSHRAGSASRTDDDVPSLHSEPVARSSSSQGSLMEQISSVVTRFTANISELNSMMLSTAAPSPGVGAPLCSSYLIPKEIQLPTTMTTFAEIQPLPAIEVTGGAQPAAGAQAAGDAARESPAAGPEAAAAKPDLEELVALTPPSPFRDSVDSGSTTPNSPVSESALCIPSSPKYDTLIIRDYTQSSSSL
Test: Antagonist activity at human mGluR5 expressed in HEK293 cells assessed as inhibition of Ca2+ mobilization by FLIPR assay
Task for the reader: assign each of the following compounds its reported IC50.

[
  {
    "COMPOUND": "CN(C(=O)c1cccc(Cl)c1)C1CCCC(N(C)C(=O)c2cccc(Cl)c2)C1 (stereo not drawn)",
    "IC50": "> 10 µM"
  }
]

Can you give me IC50 for all of these, one by one?
1. COc1cccc(C(=O)NC2CCCC(NC(=O)c3ccccn3)C2)c1 (mixture of isomers)
2. O=C(NC1CCCC2(CN=C(c3cccc(Cl)c3)O2)C1)c1ccncc1 (mixture of isomers)

-- reply
1: > 10 µM; 2: > 10 µM
